Tested on: phosphoenol pyruvate carboxylase
Assay: Stability of phosphoenol pyruvate carboxylase on storage with protease inhibitors (activity assay on TECHNICON RA-1000)
Assay type: biochemical
Conditions: 23 hrs at room temperature in R2 (50 mM Hepes pH 7.0), about 20 mg/ml enzyme; Benzamidine 4mM, p-Amino benzamidine 4mM, TPCK 0.5mM, Soya Bean Trypsin Inhibitor 10 mg/ml, Egg white Trypsin Inhibitor 10 mg/ml, BSA 20mg/ml, Aprotinin 0.5 mg/ml, PMSF 1 mM; control 25
Description: The activity assays to determine the stability of phosphoenol pyruvate carboxylase were done on a TECHNICON RA-1000 clinical analyzer in accordance with established protocols for such analysis. […] The reaction was done at 37°C and there was a 30 second incubation period before the readings were taken. The reported activity remaining refers to the percentage of the activity determined when fresh solutions were made initially. […]
recorded-metric: Percent Activity Remaining at Time (hrs.) (%)
The reply should contain only the number, in %.

Cc1ccc(S(=O)(=O)N[C@@H](Cc2ccccc2)C(=O)CCl)cc1 : 28

// sample O=S(=O)(F)Cc1ccccc1 [PMSF, phenyl methyl sulfonyl fluoride] , its Percent Activity Remaining at Time (hrs.) was 56

Measured Percent Activity Remaining at Time (hrs.) of N=C(N)c1ccccc1 : 32

The compound identified as N=C(N)c1ccc(N)cc1 registered its Percent Activity Remaining at Time (hrs.) at 28

====

tested on: phosphoenol pyruvate carboxylase; assay: Stability of phosphoenol pyruvate carboxylase on storage with protease inhibitors (activity assay on TECHNICON RA-1000); format: biochemical; conditions: 25 Hrs, absence of (NH₄)₂SO₄; PMSF 1mM, α-Antitrypsin Inhibitor 5 mg/ml, p-Nitrophenyl-p-Guanidinobenzoate 0.1mg/ml, Ovomucoid 10 mg/ml, D-Tryptophan methyl ester 5mM, 4-Phenyl butylamine 10mM, D-Arginine 10mM, D-phenylalanine 5mM; control 26
Below: a set of entries, each annotated with reported Percent Activity Remaining at Time (Hrs.).
// note: answer is a bare numeric in %

Solved entries:
N[C@H](Cc1ccccc1)C(=O)O : 51
NCCCCc1ccccc1 : 51
N=C(N)NCCC[C@@H](N)C(=O)O : 24
N=C(N)Nc1ccc(C(=O)Oc2ccc([N+](=O)[O-])cc2)cc1 [p-Nitrophenyl-p-Guanidinobenzoate] : 36
COC(=O)[C@H](N)Cc1c[nH]c2ccccc12 : 26

Now let's try a different one.
Notebook: O=S(=O)(F)Cc1ccccc1 [PMSF, phenyl methyl sulfonyl fluoride] , Percent Activity Remaining at Time (Hrs.) read as 61

====

system: phosphoenol pyruvate carboxylase; assay: Stability of phosphoenol pyruvate carboxylase on storage with protease inhibitors (activity assay on TECHNICON RA-1000); format: biochemical; conditions: 2.5 hrs at room temperature in R2 (50 mM Hepes pH 7.0), about 20 mg/ml enzyme; Benzamidine 4mM, p-Amino benzamidine 4mM, TPCK 0.5mM, Soya Bean Trypsin Inhibitor 10 mg/ml, Egg white Trypsin Inhibitor 10 mg/ml, BSA 20mg/ml, Aprotinin 0.5 mg/ml, PMSF 1 mM; control 80
recorded-metric: Percent Activity Remaining at Time (hrs.) (%)
Entry rule: numbers only, all in %.

The examples below pair each entry with its known result.
Cc1ccc(S(=O)(=O)N[C@@H](Cc2ccccc2)C(=O)CCl)cc1 [TPCK] : 74
N=C(N)c1ccccc1 [Benzamidine] : 83
O=S(=O)(F)Cc1ccccc1 [PMSF, phenyl methyl sulfonyl fluoride] : 87

Now let's try a different one.
// Percent Activity Remaining at Time (hrs.) lookup, molecule = N=C(N)c1ccc(N)cc1 [p-Amino benzamidine] , result: 75

====

Each entry below lists one item and its recorded Percent Activity Remaining at Time (hrs.) value.
tested on: phosphoenol pyruvate carboxylase; assay: Stability of phosphoenol pyruvate carboxylase on storage with protease inhibitors (activity assay on TECHNICON RA-1000); format: biochemical; conditions: 5 hrs at room temperature in R2 (50 mM Hepes pH 7.0), about 20 mg/ml enzyme; Benzamidine 4mM, p-Amino benzamidine 4mM, TPCK 0.5mM, Soya Bean Trypsin Inhibitor 10 mg/ml, Egg white Trypsin Inhibitor 10 mg/ml, BSA 20mg/ml, Aprotinin 0.5 mg/ml, PMSF 1 mM; control 80
Numeric answer only, unit % assumed.

Some solved entries appear below for comparison.
Cc1ccc(S(=O)(=O)N[C@@H](Cc2ccccc2)C(=O)CCl)cc1 [TPCK] : 68
N=C(N)c1ccc(N)cc1 [p-Amino benzamidine] : 75
N=C(N)c1ccccc1 [Benzamidine] : 83

Recorded result, O=S(=O)(F)Cc1ccccc1 [PMSF, phenyl methyl sulfonyl fluoride] , Percent Activity Remaining at Time (hrs.): 89

From: patent EP0306167A2
